Assay protocol: clinical
Reported conditions: female, human, plasma, oral, 3 mg, mean half-life, after the last dose of 3 mg

# Molecule, half-life
records = [
    ("CC(C)(C#N)c1cc(Cn2cncn2)cc(C(C)(C)C#N)c1 [ZD1033]", "45.4 h"),
]

###

Assay protocol: clinical
Reported conditions: female, human, plasma, oral, 0.5 mg

# Smi, Tmax / h
rows = [
    ("CC(C)(C#N)c1cc(Cn2cncn2)cc(C(C)(C)C#N)c1", 2),
]

###

Assay protocol: clinical
Reported conditions: female, human, plasma, oral, 1 mg
Assay metric: Cmax (ng/mL)

# Compound, Assay metric, Obs value
records = [
    ("CC(C)(C#N)c1cc(Cn2cncn2)cc(C(C)(C)C#N)c1 [ZD1033]", "Cmax", 13.7),
]
